Test system: HL-60(TB) leukemia
protocolNotes: NCI tumour cell line growth inhibition, 48 h
*1 amine or outer side, *2 acyl side, *3 side chain or, on linkers, in order; H or OH if unused. Where a SMILES comes first, the peptide text is derived from it. [ ]: non-standard residue; d: D form. ξ: configuration not given here. X21 = CC[C@@H](C)C(N[*:1])C(=O)[*:2]; ξR = N=C(N)NCCCC(N)C(=O)O; ξI = CCC(C)C(N)C(=O)O; ξL = CC(C)CC(N)C(=O)O; ξK = NCCCCC(N)C(=O)O; ξV = CC(C)C(N)C(=O)O; ξA = CC(N)C(=O)O
experimentalReadout: log10 TGI (log10 of the value in µM)
Would you kindly interpret these values as log10 of TGI expressed in µM?

[ask] Name the reported log10 TGI value associated with the compound COC(=O)C1C(OCc2ccccc2)C2CCC1(OC)C=C2C (configuration not stated)
[reply] 1.47

[ask] Repeat with `O=c1cc(N=Nc2ccc(Cl)cc2)[nH]c(=O)[nH]1`
[reply] 0.59

[ask] Check CCC(C)C1NC(=O)C(CC(C)C)NC(=O)C(C)NC(=O)C(C(C)C)NC(=O)C(CCCCN)NC(=O)C(CC(C)C)NC(=O)C(C(C)C)NC(=O)[C@H](C)NC(=O)C(C(C)CC)NC(=O)C(CCCN=C(N)N)NC(=O)C(CCCCN)NC(=O)C(CCCN=C(N)N)NC(=O)C(CCCCN)NC(=O)C([C@H](C)CC)NC(=O)C(CCCCN)NC1=O (some centres not stated) (cyclo(A[ξV][ξL][ξK][ξV][ξA][ξL][ξI][ξK][X21][ξK][ξR][ξK][ξR][ξI])) too.
[reply] 0.65

[ask] Also, `CCN(CC)C(=O)N1CN(c2ccccc2)C2(CCN(CCCSc3ccc(F)cc3)CC2)C1=O` please.
[reply] 1.29

[ask] Thanks! And COC(=O)c1ccccc1C1CN=NC12Cc1cccc(C)c1C2=O (configuration not stated) ?
[reply] 1.86
